experiment: blood-stage malaria parasite viability loss – strain 3D7, DAPI fluorescence, 100 nL, primary screen (AID 1184);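 further: parasites grown inside human red blood cells in medium with human serum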; conditions: P. falciparum 3D7 growth, 3 d, higher = more signal
Catalogue of z-score readings, one per entry.
PROPERTY: z-score

| MOLECULE | PROPERTY | QUANTITATIVE_READOUT |
| --- | --- | --- |
| CC#CCO[Si](C#Cc1ccccc1)(C(C)C)C(C)C | z-score | -0.916 |
| [N-]=[N+]=NCc1ccccc1[C@@H]1OC(c2ccc(OCCCO)cc2)=N[C@]1(CCS(=O)(=O)c1ccccc1)C(=O)O | z-score | 0.692 |
| [N-]=[N+]=Nc1ccccc1C[C@@]1(C(=O)NCCN2CCOCC2)N=C(c2ccc(OCCCO)cc2)O[C@@H]1c1ccccc1N=[N+]=[N-] | z-score | -2.49 |
| COc1ccc([Si](C)(C)[C@@H]2[C@@H](CCO)O[C@]3(C(=O)N(Cc4cccc(NC(=O)[C@H](C)O)c4)c4ccccc43)[C@H]2C)cc1 | z-score | -2.69 |
| COCCOC(=O)N1C(=O)[C@@]2(c3cc(C#CCC(C(=O)OC)C(=O)OC)ccc31)[C@H](c1ccc(OCCO)cc1)N1[C@H](c3ccccc3)[C@H](c3ccccc3)OC(=O)[C@H]1[C@@H]2C(=O)N1CCc2cc(OC)c(OC)cc2C1 | z-score | -2 |
| O=C1OCCC=C[C@H]2OC34C=CCN(c5ccc6ccccc6c5)C(=O)[C@H]3N(CCCO)C(=O)[C@@H]4C12 (some centres not stated) | z-score | -1.83 |
| COC(=O)[C@@]1(Cc2ccc(OC)cc2)[C@H]2c3cc(C(=O)N4CCCC4)n(CCO)c3C[C@H]2CN1C(=O)c1ccccc1 | z-score | -1.72 |
| COCCOC(=O)N1C(=O)[C@@]2(c3cc(C#CC4=CCCCC4)ccc31)[C@H](c1ccccc1OCCO)N1[C@H](c3ccccc3)[C@H](c3ccccc3)OC(=O)[C@H]1[C@@H]2C(=O)NC[C@H](O)c1ccccc1 | z-score | -1.93 |
| C[N+](C)(C)CCCC[C@@H]1NC(=O)[C@@H]2C[C@H](C(=O)NCCCCCCN)[C@H](c3cccc(OCCO)c3)N2C1=O | z-score | -0.133 |
| CC(=O)NCCCC[C@@H]1NC(=O)[C@@H]2C[C@H](C(=O)NCCCCCN)[C@H](c3cccc(OCCO)c3)N2C1=O | z-score | 0.0297 |
| CCOC(=O)C[C@H]1[C@H](OC(=O)Cc2ccc3c(c2)OCO3)[C@@H](NC(=O)c2ccc3ccccc3n2)c2cc(OCCCO)ccc2N1C(=O)c1ccccc1 | z-score | -1.03 |
| C=CC[C@]1(C(=O)N2CCOCC2)COC(c2ccc(OCCCO)cc2)=N1 | z-score | -0.813 |
| [N-]=[N+]=Nc1ccccc1C[C@@]1(C(N)=O)N=C(c2ccc(OCCCO)cc2)O[C@@H]1c1ccccc1N=[N+]=[N-] | z-score | -2.67 |
| C=CCNC(=O)[C@@H]1[C@H]2C(=O)O[C@H](c3ccccc3)[C@H](c3ccccc3)N2[C@H](c2ccccc2OCCO)[C@@]12C(=O)Nc1ccc(C#CCC(C(=O)OC)C(=O)OC)cc12 | z-score | -2.1 |
| COc1cc2c(cc1O)C(C1CC1)N(Cc1cccc(OC(F)(F)F)c1)CC2 (configuration not stated) | z-score | -1.8 |
| O=C(NCCN1CCOCC1)[C@@H]1c2ccccc2C(=O)N(Cc2ccccc2Cl)[C@H]1c1ccc(CO)cc1 | z-score | -0.879 |
| CC1CC/C=C\[C@H]2OC34C=CCN(C(C)C)C(=O)[C@H]3N(CCO)C(=O)[C@@H]4C2C(=O)O1 (some centres not stated) | z-score | -1.22 |
